system: MDA-MB-231; assay: Antiproliferative activity against human MDA-MB-231 cells after 72 hrs by MTT assay; assay type: functional, cell-based; details: MDA-MB-231, 72 h
Measured Endpoint: log10 IC50 (log10 of the value in nM)
Parameter value (number): base-10 log of IC50 in nM.

Solved cases (2 shown):
INSERT INTO results (molecule, measured_endpoint, result_value) VALUES
  ('COc1ccc([C@@H]2[C@@H](c3ccc(O)cc3)C(=O)N2c2cc(OC)c(OC)c(OC)c2)cc1O', 'log10 IC50', 2.25),
  ('COc1ccc([C@@H]2[C@@H](c3ccccc3)C(=O)N2c2cc(OC)c(OC)c(OC)c2)cc1N', 'log10 IC50', 2.63);

What does the record list as log10 IC50 for `COc1ccc([C@@H]2[C@@H](c3ccc(N)cc3)C(=O)N2c2cc(OC)c(OC)c(OC)c2)cc1` ?
2.35

What does the record list as log10 IC50 for `COc1ccc([C@@H]2[C@@H](c3ccc(O)cc3)C(=O)N2c2cc(OC)c(OC)c(OC)c2)cc1` ?
2.20

What does the record list as log10 IC50 for `COc1ccc([C@@H]2[C@@H](c3ccccc3)C(=O)N2c2cc(OC)c(OC)c(OC)c2)cc1` ?
1.89

What does the record list as log10 IC50 for COc1ccc(/C=C\c2cc(OC)c(OC)c(OC)c2)cc1O [COMBRETASTATIN A4] ?
1.63

What does the record list as log10 IC50 for `COc1ccc([C@@H]2[C@@H](c3ccc(F)cc3)C(=O)N2c2cc(OC)c(OC)c(OC)c2)cc1` ?
2.36

----------
Quick reference for pIC50 among some molecules
system: MDA-MB-231; experiment: Antiproliferative activity against human MDA-MB-231 cells after 72 hrs by MTT assay; assay type: functional, cell-based; conditions: MDA-MB-231, 72 h
Scale for pIC50: -log10 of concentration given in mol/L; no unit attached.

Solved cases (3 shown):
INSERT INTO results (sample_smiles, measured_endpoint, result_value) VALUES
  ('COc1ccc([C@@H]2[C@@H](c3ccc(F)cc3)C(=O)N2c2cc(OC)c(OC)c(OC)c2)cc1N', 'pIC50', 7.09),
  ('COc1ccc([C@@H]2[C@@H](c3ccc(O)cc3)C(=O)N2c2cc(OC)c(OC)c(OC)c2)cc1N', 'pIC50', 5.77),
  ('COc1ccc([C@@H]2[C@@H](c3ccc(F)cc3)C(=O)N2c2cc(OC)c(OC)c(OC)c2)cc1O', 'pIC50', 6.97);

What does the record list as pIC50 for `COc1ccc([C@@H]2[C@@H](c3ccccc3)C(=O)N2c2cc(OC)c(OC)c(OC)c2)cc1O` ?
7.54
